Test system: SW684
Assay: relative viability vs DMSO control (72 h) (fraction); higher = more viable cells
Conditions: 10 µM
# relative viability listing for each entry below
recorded_endpoint: relative viability

1) CNC(=O)c1nnc(NC(=O)C2CC2)cc1Nc1cccc(-c2ncn(C)n2)c1OC; 1.12
2) O=c1sn(-c2cccc3ccccc23)c(=O)n1Cc1ccccc1; 1.1
3) COc1cc(Nc2ncc(F)c(Nc3ccc4c(n3)N(COP(=O)(O)O)C(=O)C(C)(C)O4)n2)cc(OC)c1OC; 0.481
4) CC[C@@H]1CN(C(=O)NCC(F)(F)F)C[C@@H]1c1cnc2cnc3[nH]ccc3n12; 1.03

----------
Tested on: HS729
Test: relative viability vs DMSO control (72 h) (fraction); higher = more viable cells
Details: 0.00017 µM
Threshold 1. relative viability below it: Y. relative viability at it or above: N.

1. Clc1ccc(Nc2nnc(Cc3ccncc3)c3ccccc23)cc1; Y
2. CN1CC[C@@H](NC(=O)Nc2ccc(C#N)cc2)C[C@@H]1c1nc2ccccc2[nH]1; N
3. CNC(=O)c1nnc(NC(=O)C2CC2)cc1Nc1cccc(-c2ncn(C)n2)c1OC; Y
4. Cn1cc(C2=C(c3cn(C4CCN(Cc5ccccn5)CC4)c4ccccc34)C(=O)NC2=O)c2ccccc21; N
5. O=C1NC(=O)[C@@H](c2cn3c4c(cccc24)CCC3)[C@@H]1c1c[nH]c2ccccc12 [Tivantinib]; Y
6. Cc1ccc(Nc2nccc(N(C)c3ccc4c(C)n(C)nc4c3)n2)cc1S(N)(=O)=O; Y
7. C[C@]12O[C@H](C[C@]1(O)CO)n1c3ccccc3c3c4c(c5c6ccccc6n2c5c31)CNC4=O; N
8. CC#CC(=O)N1CCC[C@H]1c1nc(-c2ccc(C(=O)Nc3ccccn3)cc2)c2c(N)nccn12; Y
9. CC(C)Oc1ccc(-c2nn([C@@H](C)c3oc4ccc(F)cc4c(=O)c3-c3cccc(F)c3)c3ncnc(N)c23)cc1F; N
10. N#CCNC(=O)c1ccc(-c2ccnc(Nc3ccc(N4CCOCC4)cc3)n2)cc1; N

----------
Test system: SK-ES-1
Experiment: relative viability vs DMSO control (72 h) (fraction); higher = more viable cells
Conditions: 0.00152 µM
# relative viability listing for each entry below
recorded_endpoint: relative viability

1. C[C@H](Nc1ncnc2nc[nH]c12)c1cc2cccc(Cl)c2c(=O)n1-c1ccccc1; 1.06
2. CC(C)NC[C@@H](C(=O)N1CCN(c2ncnc3c2[C@H](C)C[C@H]3O)CC1)c1ccc(Cl)cc1; 1.01
3. CC(C)Oc1ccc(-c2nn([C@@H](C)c3oc4ccc(F)cc4c(=O)c3-c3cccc(F)c3)c3ncnc(N)c23)cc1F; 1.05

----------
# relative viability listing for each entry below
System: MES-SA
Experiment: relative viability vs DMSO control (72 h) (fraction); higher = more viable cells
Settings: 0.00152 µM
recorded_endpoint: relative viability

1. CC#CC(=O)N1CCC[C@H]1c1nc(-c2ccc(C(=O)Nc3ccccn3)cc2)c2c(N)nccn12; 0.937
2. O=S(=O)(c1cccc2cnccc12)N1CCCNCC1; 0.967
3. CCC(=O)N1CC[C@H](Nc2ncnc3c2CN(c2cnc(OC)c(C(F)(F)F)c2)CC3)C1; 0.932
4. COc1cc(CCc2cc(NC(=O)c3ccc(N4CC(C)NC(C)C4)cc3)n[nH]2)cc(OC)c1 (stereo not drawn); 0.92
5. CC(C)Oc1ccc(-c2nn([C@@H](C)c3oc4ccc(F)cc4c(=O)c3-c3cccc(F)c3)c3ncnc(N)c23)cc1F; 0.94
6. Cn1cc(C2=C(c3cn(C4CCN(Cc5ccccn5)CC4)c4ccccc34)C(=O)NC2=O)c2ccccc21; 0.994
7. CN1CC[C@@H](NC(=O)Nc2ccc(C#N)cc2)C[C@@H]1c1nc2ccccc2[nH]1; 0.976
8. CO[C@H]1C[C@@H]2CC[C@@H](C)[C@@](O)(O2)C(=O)C(=O)N2CCCC[C@H]2C(=O)O[C@H]([C@H](C)C[C@@H]2CC[C@@H](OCCO)[C@H](OC)C2)CC(=O)[C@H](C)/C=C(\C)[C@@H](O)[C@@H](OC)C(=O)[C@H](C)C[C@H](C)/C=C/C=C/C=C/1C; 0.608

----------
Tested on: SW684
Assay: relative viability vs DMSO control (72 h) (fraction); higher = more viable cells
Details: 3.333 µM
recorded_endpoint: relative viability

1) CC1(C)CC=C(c2nc(C3CC(C)(C)OC(C)(C)C3)ccc2NC(=O)c2nc(C#N)c[nH]2)CC1; 1.14
2) N#CCNC(=O)c1ccc(-c2ccnc(Nc3ccc(N4CCOCC4)cc3)n2)cc1; 0.82
3) Cc1cc2c(F)c(Oc3ncnn4cc(OC[C@@H](C)O)c(C)c34)ccc2[nH]1; 1.16

----------
# standardised AUC listing for each entry below
Tested on: SK-ES-1
Assay: standardised AUC of viability dose-response curve (72 h) (fraction (0-1)); higher = less growth inhibition (more resistant)
recorded_endpoint: standardised AUC

1. COC(=O)[C@@]1(O)C[C@H]2O[C@]1(C)n1c3ccccc3c3c4c(c5c6ccccc6n2c5c31)C(=O)NC4 [K-252A]; 0.543
2. O=c1sn(-c2cccc3ccccc23)c(=O)n1Cc1ccccc1; 0.975
3. COCCNc1cc(NC(=O)N2CCCc3cc(CN4CCN(C)CC4=O)c(C=O)nc32)ncc1C#N; 0.976
4. COC(=O)N[C@@H](C)CNc1nccc(-c2cn(C(C)C)nc2-c2cc(Cl)cc(NS(C)(=O)=O)c2F)n1; 0.843
5. N#CC1(c2ccc(NC(=O)c3cccnc3NCc3ccncc3)cc2)CCCC1; 0.988
6. Cc1cc2c(F)c(Oc3ncnn4cc(OC[C@@H](C)O)c(C)c34)ccc2[nH]1; 0.987
7. O=C1NC(=O)[C@@H](c2cn3c4c(cccc24)CCC3)[C@@H]1c1c[nH]c2ccccc12 [TIVANTINIB]; 0.718
8. COc1cc(Nc2ncc(F)c(Nc3ccc4c(n3)N(COP(=O)(O)O)C(=O)C(C)(C)O4)n2)cc(OC)c1OC; 0.757

----------
Test system: SW982
Experiment: relative viability vs DMSO control (72 h) (fraction); higher = more viable cells
Details: 0.00152 µM
recorded_endpoint: relative viability

1) COc1cc(Nc2ncc(F)c(Nc3ccc4c(n3)N(COP(=O)(O)O)C(=O)C(C)(C)O4)n2)cc(OC)c1OC; 1.04
2) CC1(COc2ccc3c(c2)ncn3-c2ccc3cccc(N4CCC(N)CC4)c3n2)COC1; 0.947
3) COC(=O)N[C@@H](C)CNc1nccc(-c2cn(C(C)C)nc2-c2cc(Cl)cc(NS(C)(=O)=O)c2F)n1; 0.887
4) CC#CC(=O)N1CCC[C@H]1c1nc(-c2ccc(C(=O)Nc3ccccn3)cc2)c2c(N)nccn12; 1.05
5) Cn1cc(C2=C(c3cn(C4CCN(Cc5ccccn5)CC4)c4ccccc34)C(=O)NC2=O)c2ccccc21; 1.08
6) CN1CC[C@@H](NC(=O)Nc2ccc(C#N)cc2)C[C@@H]1c1nc2ccccc2[nH]1; 1
7) COCCNc1cc(NC(=O)N2CCCc3cc(CN4CCN(C)CC4=O)c(C=O)nc32)ncc1C#N; 0.991
8) CC(C)NC[C@@H](C(=O)N1CCN(c2ncnc3c2[C@H](C)C[C@H]3O)CC1)c1ccc(Cl)cc1; 1.02
9) CCC(=O)N1CC[C@H](Nc2ncnc3c2CN(c2cnc(OC)c(C(F)(F)F)c2)CC3)C1; 1.05
10) C[C@H](Nc1ncnc2nc[nH]c12)c1cc2cccc(Cl)c2c(=O)n1-c1ccccc1; 1.09

----------
System: HT1080
Experiment: standardised AUC of viability dose-response curve (72 h) (fraction (0-1)); higher = less growth inhibition (more resistant)
recorded_endpoint: standardised AUC

1) O=C(Nc1nc2cccc(-c3ccc(CN4CCS(=O)(=O)CC4)cc3)n2n1)C1CC1 [FILGOTINIB]; 0.991
2) N#CCNC(=O)c1ccc(-c2ccnc(Nc3ccc(N4CCOCC4)cc3)n2)cc1 [MOMELOTINIB]; 1
3) CN1CCN(c2ccc(C(=O)Nc3n[nH]c4ccc(Cc5cc(F)cc(F)c5)cc34)c(NC3CCOCC3)c2)CC1 [ENTRECTINIB]; 0.957
4) CCN(CC)CCNC(=O)c1c(C)[nH]c(/C=C2\C(=O)Nc3ccc(F)cc32)c1C [SUNITINIB]; 0.864
5) CC(C)(C)c1nc(-c2cccc(NS(=O)(=O)c3c(F)cccc3F)c2F)c(-c2ccnc(N)n2)s1 [DABRAFENIB]; 0.924
6) Cc1[nH]c(/C=C2\C(=O)Nc3ccc(F)cc32)c(C)c1C(=O)NCCN1CCCC1 [TOCERANIB]; 0.908
7) CC(C)(O)CNc1nc(Nc2ccnc(C(F)(F)F)c2)nc(-c2cccc(C(F)(F)F)n2)n1 [ENASIDENIB]; 0.999
8) C[C@]12O[C@H](C[C@]1(O)CO)n1c3ccccc3c3c4c(c5c6ccccc6n2c5c31)CNC4=O [LESTAURTINIB]; 0.802
9) Cn1cc(C2=C(c3cn(C4CCN(Cc5ccccn5)CC4)c4ccccc34)C(=O)NC2=O)c2ccccc21 [ENZASTAURIN]; 1
10) O=c1sn(-c2cccc3ccccc23)c(=O)n1Cc1ccccc1 [TIDEGLUSIB]; 0.999
